Hey, just so you know, these numbers are from the supplement of paper PMC7411054.

- Test system: WPMY1-CANX-COX4
- Assay Info: phenotypically active (imaging signature differs from DMSO and reproducible) at any of 0.3-9 uM (binary (1 = active, 0 = inactive)); higher = active
- Conditions: treatment time: 24 h
Where a name gives a salt, the structure may show the parent alone.
Select the matching outcome among active, inactive

Ask: Given COc1ccc(C(=O)Nc2sc3c(c2C(N)=O)CCCC3)cc1OC , state the outcome it received in this test.
Reply: inactive

Ask: // query: Cc1cc(CS(=O)(=O)c2ccccc2)cc(OCc2ccc(CN3CCC[C@@H]3CO)cc2)c1 [PF 543 hydrochloride]
Reply: inactive

Ask: // query: CC(C)(C)c1nc(-c2cccc(NS(=O)(=O)c3c(F)cccc3F)c2F)c(-c2ccnc(N)n2)s1 [dabrafenib]
Reply: active

Ask: // query: Cc1c(-c2cnccn2)ssc1=S [Oltipraz]
Reply: inactive

Ask: // query: CC(C)(Sc1ccc(CCN(CCCCC2CCCCC2)C(=O)NC2CCCCC2)cc1)C(=O)O
Reply: inactive

Ask: // query: CC(=O)OC(C)C[N+](C)(C)C (configuration not stated) [methacholine]
Reply: inactive

Ask: // query: NC(=O)c1ccc(N(C(N)=O)c2c(F)cccc2F)nc1-c1ccc(F)cc1F
Reply: inactive

Ask: // query: O=C1N[C@@H]2[C@@H](O)[C@@H](O)[C@H](O)[C@@H](CO)N2C1=O [Kifunensine]
Reply: inactive

Ask: // query: COc1ccc(C(=O)C2CCN(CC(=O)N(Cc3nc4c(c(=O)[nH]3)COCC4)CC3CC3)CC2)cc1
Reply: inactive

Ask: // query: COc1ccc(C(C)=O)c(O)c1 [2'-Hydroxy-4'-Methoxyacetophenone]
Reply: inactive

Ask: // query: Nc1ncnc2c1c(-c1cnc3[nH]ccc3c1)nn2C1CCCC1
Reply: active

Ask: // query: C=C[C@H]1CN2CC[C@H]1C[C@@H]2[C@@H](O)c1ccnc2ccc(OC)cc12 [Quinidine hydrochloride monohydrate]
Reply: inactive

Ask: // query: Nc1ncnc2c1nc(Br)n2[C@@H]1O[C@@H]2COP(=O)(O)O[C@H]2[C@H]1O [8-Bromo-cAMP, sodium salt]
Reply: active

Ask: // query: C[C@@H]1C(=O)O[C@H]2C[C@@]34[C@H]5C[C@@H](C(C)(C)C)[C@]36[C@@H](OC(=O)[C@@H]6O)O[C@@]4(C(=O)O5)[C@]21O [Ginkgolide A]
Reply: inactive

Ask: // query: CN(C)CCOC(c1ccc(Cl)cc1)c1ccccn1 (configuration not stated) [carbinoxamine]
Reply: inactive

Ask: // query: C[C@]12CC[C@@H]3c4ccc(O)cc4CC[C@H]3[C@@H]1CC[C@@H]2OC(=O)CCC1CCCC1 [estradiol cypionate]
Reply: inactive

Ask: // query: O=C(NCCCNc1nc(Nc2cccc(NC(=O)N3CCCC3)c2)ncc1I)c1cccs1
Reply: active

###

- System: HepG2-TUBA1B-RELA
- Assay Info: lowest phenotypically active concentration; higher = less potent
- Conditions: treatment time: 24 h
Kindly state lowest phenotypically active concentration for each of the entries shown.
Numeric only. Scale: µM

Ask: # get_value(readout='lowest phenotypically active concentration', item= COc1cc2c(cc1O)CC[C@@H]1[C@@H]2CC[C@]2(C)[C@@H](O)CC[C@@H]12 )
Reply: 3

Ask: // query: CCCCCCCCCCCCCCCC[n+]1ccn(Cc2ccccc2)c1C
Reply: 1
